- Measurement Target: H1047R PIK3CA enzyme (Homo sapiens, UniProt P42336, H1047R)
- Sequence (P42336 whole entry H1047R): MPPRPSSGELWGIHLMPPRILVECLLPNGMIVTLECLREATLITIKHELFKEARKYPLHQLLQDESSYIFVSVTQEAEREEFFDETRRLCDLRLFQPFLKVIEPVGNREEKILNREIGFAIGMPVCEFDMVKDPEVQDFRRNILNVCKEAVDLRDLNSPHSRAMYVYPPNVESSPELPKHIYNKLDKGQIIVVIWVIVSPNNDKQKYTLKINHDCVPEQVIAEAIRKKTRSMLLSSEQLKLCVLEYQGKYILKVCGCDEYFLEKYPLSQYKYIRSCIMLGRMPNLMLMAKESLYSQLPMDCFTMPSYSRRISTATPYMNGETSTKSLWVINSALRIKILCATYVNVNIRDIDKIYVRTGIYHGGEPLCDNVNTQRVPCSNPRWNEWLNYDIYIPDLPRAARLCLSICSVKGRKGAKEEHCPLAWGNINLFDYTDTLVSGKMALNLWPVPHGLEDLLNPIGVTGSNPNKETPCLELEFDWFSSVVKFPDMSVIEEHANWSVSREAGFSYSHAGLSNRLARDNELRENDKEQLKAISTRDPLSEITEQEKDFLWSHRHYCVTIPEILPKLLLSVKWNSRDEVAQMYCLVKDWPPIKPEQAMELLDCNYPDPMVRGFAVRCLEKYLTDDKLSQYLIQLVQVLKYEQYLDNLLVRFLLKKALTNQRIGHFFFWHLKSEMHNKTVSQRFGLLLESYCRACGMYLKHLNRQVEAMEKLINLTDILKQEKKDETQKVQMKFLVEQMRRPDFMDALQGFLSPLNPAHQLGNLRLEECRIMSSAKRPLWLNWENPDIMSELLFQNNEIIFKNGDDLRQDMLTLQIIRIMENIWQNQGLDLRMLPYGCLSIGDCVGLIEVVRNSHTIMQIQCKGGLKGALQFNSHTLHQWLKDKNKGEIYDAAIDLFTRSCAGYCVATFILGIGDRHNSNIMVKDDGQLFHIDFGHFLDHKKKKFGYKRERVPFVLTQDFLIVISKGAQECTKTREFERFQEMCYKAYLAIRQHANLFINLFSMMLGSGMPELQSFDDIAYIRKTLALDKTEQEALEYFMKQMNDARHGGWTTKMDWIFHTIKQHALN
- Sequence (P27986 whole entry partner): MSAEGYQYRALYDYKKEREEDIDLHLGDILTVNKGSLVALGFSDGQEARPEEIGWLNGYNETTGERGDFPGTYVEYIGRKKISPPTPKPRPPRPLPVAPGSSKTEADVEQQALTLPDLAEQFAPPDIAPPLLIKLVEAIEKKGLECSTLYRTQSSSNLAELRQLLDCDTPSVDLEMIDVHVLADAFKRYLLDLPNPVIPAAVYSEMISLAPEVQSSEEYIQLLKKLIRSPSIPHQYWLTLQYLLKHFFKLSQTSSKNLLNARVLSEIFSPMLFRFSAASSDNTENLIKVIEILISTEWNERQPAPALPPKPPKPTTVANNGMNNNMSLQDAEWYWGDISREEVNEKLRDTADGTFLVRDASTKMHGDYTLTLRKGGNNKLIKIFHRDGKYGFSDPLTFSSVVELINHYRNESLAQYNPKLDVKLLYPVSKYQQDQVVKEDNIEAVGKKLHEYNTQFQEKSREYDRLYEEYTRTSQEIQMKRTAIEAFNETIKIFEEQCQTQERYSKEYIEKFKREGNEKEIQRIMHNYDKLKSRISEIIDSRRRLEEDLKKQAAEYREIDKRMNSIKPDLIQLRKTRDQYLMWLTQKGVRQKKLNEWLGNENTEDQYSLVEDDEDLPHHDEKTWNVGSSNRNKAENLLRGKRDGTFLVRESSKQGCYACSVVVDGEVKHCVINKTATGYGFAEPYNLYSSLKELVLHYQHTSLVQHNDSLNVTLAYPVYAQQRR
- Measurement Notes: ADP-Glo Biochemical PIK3CA Kinase Assay
Readout Label: IC50

Q: Query (compound): Cc1ccccc1Nc1cnc(C(=O)NC2CS(=O)(=O)C2)cc1NC(=O)c1cc(F)cc(C(F)(F)F)c1 [I-343] ; field requested: IC50
Result: 1 to 10 µM

Q: Could you do the same for Cc1ccccc1Nc1ncc(C(=O)NCc2cnn(C)c2)cc1NC(=O)c1cc(F)cc(C(F)(F)F)c1 [I-53] , please?
Result: 0.1 to 0.5 µM

Q: Could you do the same for Cc1ccccc1Nc1ncc(N2CCNCC2)cc1NC(=O)c1cc(F)cc(C(F)(F)F)c1 [I-268] , please?
Result: 0.5 to 1 µM

Q: Could you do the same for COCCn1cc(NC(=O)c2csc3ccccc23)c(N2CCOc3ccccc32)cc1=O [I-271] , please?
Result: 1 to 10 µM

Q: Could you do the same for Cc1ccccc1Nc1ncc(C(=O)NC2CS(=O)(=O)C2)cc1NC(=O)c1csc2ccccc12 [I-136] , please?
Result: ≤ 0.1 µM

Q: Could you do the same for O=C(Nc1ccnn1-c1ccccc1)c1cc(F)cc(C(F)(F)F)c1 [I-806] , please?
Result: 10 to 100 µM

Q: Could you do the same for Cc1ccccc1Nc1ncc(-c2cnn(C)c2)cc1NC(=O)c1cccn2nccc12 [I-89] , please?
Result: 10 to 100 µM

Q: Could you do the same for CNC(=O)c1cnc(Nc2ccccc2C)c(NC(=O)Cc2ccc(OCc3ccccc3)c(OCc3ccccc3)c2)c1 [I-14] , please?
Result: 10 to 100 µM

###

- Measurement Target: H1047R PIK3CA enzyme (Homo sapiens, UniProt P42336, H1047R)
- Measurement Notes: ADP-Glo Biochemical PIK3CA Kinase Assay
Readout Label: IC50

Q: Query (compound): C[C@]1(O)C[C@@H](NC(=O)c2cnc(N3CCOc4ccccc43)c(NC(=O)c3csc4ccccc34)c2)C1 [I-317] ; field requested: IC50
Result: 100 to 500 nM

Q: Could you do the same for Cc1ccccc1Nc1ncc(Br)cc1NC(=O)c1cc(F)cc(C(F)(F)F)c1 [I-60] , please?
Result: 1000 to 10000 nM

Q: Could you do the same for CNC(=O)c1cnc(N)c(NC(=O)c2cc(F)cc(C(F)(F)F)c2)c1 [I-204] , please?
Result: 10000 to 100000 nM

Q: Could you do the same for CNC(=O)c1cnc(Nc2ccccc2C)c(NC(=O)c2csc3ccc(F)cc23)c1 [I-150] , please?
Result: 100 to 500 nM

Q: Could you do the same for COC(=O)c1cnc(Nc2ccc(C)cc2)c(NC(=O)c2csc3ccccc23)c1 [I-206] , please?
Result: 10000 to 100000 nM

Q: Could you do the same for Cc1ccccc1Nc1ncc(C(=O)NC(C)c2ccccc2)cc1NC(=O)c1csc2ccccc12 (stereo not shown) [I-197] , please?
Result: ≤ 100 nM

Q: Could you do the same for Cc1ccccc1Nc1ncc(C(=O)NCCO)cc1NC(=O)c1cc(F)cc(C(F)(F)F)c1 [I-86] , please?
Result: 500 to 1000 nM

###

- Measurement Target: H1047R PIK3CA enzyme (Homo sapiens, UniProt P42336, H1047R)
- Measurement Notes: ADP-Glo Biochemical PIK3CA Kinase Assay
- Conditions: ADP-Glo biochemical PIK3CA kinase assay
Readout Label: IC50

Q: Query (compound): CNC(=O)c1cnc(Nc2cccnc2OC)c(NC(=O)c2csc3ccccc23)c1 [I-400] ; field requested: IC50
Result: 10 to 100 µM

Q: Could you do the same for CNC(=O)c1cnc(Nc2ccccc2C)c(NC(=O)c2cc3ccccc3n2C)c1 [I-505] , please?
Result: 10 to 100 µM

Q: Could you do the same for CNC(=O)c1cnc(Nc2ccccc2C)c(NC(=O)c2cccc3cc(C)[nH]c23)c1 [I-421] , please?
Result: 1 to 10 µM

Q: Could you do the same for Cc1ccccc1Nc1ncc(C(=O)NCC2(C#N)CC2)cc1NC(=O)c1csc2ccccc12 [I-580] , please?
Result: ≤ 0.1 µM

Q: Could you do the same for CNC(=O)c1cnc(Nc2ccccc2C)c(NC(=O)c2cccnc2CS(C)(=O)=O)c1 [I-443] , please?
Result: 10 to 100 µM

Q: Could you do the same for Cc1ccccc1Nc1ncc(C(=O)NCC2CCC(O)C2)cc1NC(=O)c1csc2ccccc12 (stereo not shown) [I-588] , please?
Result: 0.1 to 0.5 µM

Q: Could you do the same for CNC(=O)c1cnc(Nc2ccccc2C)c(NC(=O)Cc2ccc3ncccc3c2)c1 [I-558] , please?
Result: 1 to 10 µM

Q: Could you do the same for Cc1ccccc1Nc1ncc(C(=O)NC2CCOCC2)cc1NC(=O)c1csc2ccccc12 [I-584] , please?
Result: 0.1 to 0.5 µM

Q: Could you do the same for CNC(=O)c1cnc(Nc2ccccc2C)c(NC(=O)c2cc(Cl)n3ccccc23)c1 [I-449] , please?
Result: 0.1 to 0.5 µM

Q: Could you do the same for Cc1ccccc1Nc1ncc(C(=O)NCC(F)F)cc1NC(=O)c1csc2ccccc12 [I-519] , please?
Result: ≤ 0.1 µM

Q: Could you do the same for CNC(=O)c1cnc(Nc2ccccc2C)c(NC(=O)c2cccc(C#N)c2Cl)c1 [I-466] , please?
Result: 10 to 100 µM

Q: Could you do the same for CNC(=O)c1cnc(Nc2c3c(nn2C)CCCC3)c(NC(=O)c2csc3ccccc23)c1 [I-732] , please?
Result: 1 to 10 µM

Q: Could you do the same for Cc1ccccc1Nc1ncc(C(=O)NC(C)c2cn[nH]c2)cc1NC(=O)c1csc2ccccc12 (stereo not shown) [I-605] , please?
Result: ≤ 0.1 µM

Q: Could you do the same for CNC(=O)c1cnc(Nc2ccc3c(c2)OCC3)c(NC(=O)c2csc3ccccc23)c1 [I-738] , please?
Result: 1 to 10 µM

Q: Could you do the same for CNC(=O)c1cnc(Nc2ccccc2C)c(NC(=O)c2cc(F)c(C(F)(F)F)c(F)c2)c1 [I-717] , please?
Result: 0.5 to 1 µM

Q: Could you do the same for Cc1ccccc1Nc1cc(=O)n(CCc2ccncn2)cc1NC(=O)c1csc2ccccc12 [I-769] , please?
Result: 1 to 10 µM

Q: Could you do the same for CNC(=O)c1cnc(Nc2ccccc2C)c(NC(=O)C(C)Cc2ccc(F)cc2)c1 (stereo not shown) [I-471] , please?
Result: 10 to 100 µM

Q: Could you do the same for CNC(=O)c1cnc(Nc2ccccc2C)c(NC(=O)c2coc3ccc(Cl)cc23)c1 [I-408] , please?
Result: 0.5 to 1 µM

Q: Could you do the same for CC(C)(O)c1cnc(Nc2cc(F)ccc2Cl)c(NC(=O)c2nsc3ccccc23)c1 [I-783] , please?
Result: 0.1 to 0.5 µM

###

- Measurement Target: H1047R PIK3CA enzyme (Homo sapiens, UniProt P42336, H1047R)
- Measurement Notes: ADP-Glo Biochemical PIK3CA Kinase Assay
Would you mind telling me the reported IC50 of each entry?

Q: Query (compound): CNC(=O)c1cnc(Nc2ccccc2C)c(NC(=O)c2cnc3ccccc3c2)c1 [I-176] ; field requested: IC50
Result: 10 to 100 µM

Q: Could you do the same for CNC(=O)c1cnc(Nc2ccccc2C)c(NC(=O)c2csc3cnccc23)c1 [I-339] , please?
Result: 0.5 to 1 µM

Q: Could you do the same for CNC(=O)c1cc(NC(=O)c2cc(F)cc(C(F)(F)F)c2)c(Nc2cc(F)ccc2Cl)s1 [I-827] , please?
Result: 0.5 to 1 µM

Q: Could you do the same for CNC(=O)c1cnc(Nc2ccccc2C)c(NC(=O)c2nccnc2C(F)(F)F)c1 [I-372] , please?
Result: 10 to 100 µM

Q: Could you do the same for CNC(=O)c1cnc(Nc2ccccc2C)c(NC(=O)c2cc(F)c3ccccc3c2)c1 [I-322] , please?
Result: 10 to 100 µM

Q: Could you do the same for CNC(=O)c1cnc(Nc2ccccc2C)c(NC(=O)c2csc(N)n2)c1 [I-243] , please?
Result: 10 to 100 µM

Q: Could you do the same for Cc1ccccc1Nc1ncc(C(=O)N2CCCC2)cc1NC(=O)c1cc(F)cc(C(F)(F)F)c1 [I-15] , please?
Result: 10 to 100 µM

Q: Could you do the same for O=C(Nc1cc(C(=O)NC2CC(F)(F)C2)cnc1N1C(=O)NCc2ccccc21)c1cc(F)cc(C(F)(F)F)c1 [I-338] , please?
Result: 1 to 10 µM

Q: Could you do the same for C[C@@H](NC(=O)c1cnc(N2CCOc3ccccc32)c(NC(=O)c2csc3ccccc23)c1)c1cccnc1 (stereo in doubt) [I-257] , please?
Result: ≤ 0.1 µM

Q: Could you do the same for O=C(NC1CS(=O)(=O)C1)c1cnc(N2CCCc3ccccc32)c(NC(=O)c2csc3ccccc23)c1 [I-180] , please?
Result: 0.1 to 0.5 µM

Q: Could you do the same for Cc1ccccc1Nc1ncc(-c2cnn(C)c2)cc1NC(=O)c1ccc(F)c(C(F)(F)F)c1 [I-102] , please?
Result: 1 to 10 µM

Q: Could you do the same for Cc1ccccc1Nc1ncc(C(=O)NC2COC2)cc1NC(=O)c1csc2ccccc12 [I-192] , please?
Result: 0.1 to 0.5 µM

Q: Could you do the same for CNC(=O)c1cnc(Nc2ccccc2C)c(NC(=O)c2cn3c(C(F)(F)F)cccc3n2)c1 [I-380] , please?
Result: 10 to 100 µM

Q: Could you do the same for CNC(=O)c1cnc(Nc2ccccc2C)c(NC(=O)c2cc(F)cc(-c3ccccc3)c2)c1 [I-318] , please?
Result: 10 to 100 µM

Q: Could you do the same for Cc1ccccc1Nc1ncc(C(=O)NC2CC(F)(F)C2)cc1NC(=O)c1cc(F)cc(C(F)(F)F)c1 [I-212] , please?
Result: 0.1 to 0.5 µM
